Exercise: for every item that follows, state its recorded TGI.
- Tested on: SK-MEL-2 melanoma
- Experiment description: NCI tumour cell line growth inhibition, 48 h
*1 amine or outer side, *2 acyl side, *3 side chain or, on linkers, in order; H or OH if unused. Where a SMILES comes first, the peptide text is derived from it. Bridges are numbered along the chain shown (N, C = ends). Roman numbers before positions name the chains, in order. [ ]: non-standard residue; d: D form. Actinocin(9to1) = Cc1c2oc3c(C)ccc(C(=O)[*:1])c3nc-2c(C(=O)[*:2])c(N)c1=O; NMeV = CN[CH](C(=O)O)C(C)C; Sar = CNCC(=O)O

What value of TGI has been recorded for this entry: COC(NC(N)=O)C(=O)O (stereo not given) > 100 µM

Field request: TGI | item: O=S(=O)(c1ccccc1)c1nccs1 > 100 µM

Value lookup for TGI; key = Cc1cc(C(=O)Nc2cc(Oc3ccc4nc(NC(=O)C5CC5)cn4n3)ccc2C)n(C)n1 > 10 µM

Look up TGI for this compound: CCOP(=O)(OCC)/C(C#N)=C\c1ccsc1 > 100 µM

May I ask what TGI has been recorded for Clc1ccc2nc3n[nH]c(Cl)c3nc2c1 ? > 100 µM

I have this compound here, CSC(=Nc1ccccc1Cl)NC(=O)c1ccc(Br)cc1 , and I need its recorded TGI. > 100 µM

Which TGI reading was recorded for the compound N/C(=N\NC(=O)c1nc2ccccc2s1)c1ccccn1 ? > 100 µM

Can you share its TGI? I mean this compound: COc1ccc(-c2nsc3c2NC(=O)CC3c2ccc3c(c2)OCCO3)cc1 (stereo not given) > 100 µM

Dear colleague, I am looking for the recorded TGI of the following compound: Cc1c2oc3c(C)ccc(C(=O)OC(C)C4NC(=O)C(C(C)C)N(C)C(=O)CN(C)C(=O)C5CCCN5C(=O)C(C(C)C)NC4=O)c3nc-2c(C(=O)OC(C)C2NC(=O)C(C(C)C)N(C)C(=O)CN(C)C(=O)C3CCCN3C(=O)C(C(C)C)NC2=O)c(N)c1=O (stereo not given) (I: cyclo([Sar][NMeV]TVP) / II: cyclo([Sar][NMeV]TVP); linker I:3-II:3 via Actinocin(9to1); configuration not given here) < 0.0152 µM

Given CO[C@H]1CC[C@]2(C)C3=CC[C@@]4(C)C(CC[C@@H]4C(C)CC[C@@H](C)C(C)C)C(=CCC2C1)O3 (stereo not given in full) , state its recorded TGI. > 25 µM

###

- Tested on: MCF7 breast
- Experiment description: NCI tumour cell line growth inhibition, 48 h
Assay metric: TGI

What value of TGI has been recorded for this entry: CC(=Nc1ccccc1)C1=C(O)C(Cc2cccc(F)c2)NC1=O (configuration not stated) > 100 µM

// TGI lookup, key: CC(=O)NNc1nc(C)c(C(/C=C/c2ccc([N+](=O)[O-])cc2)=N/NC(N)=O)s1 > 100 µM

Reported TGI, molecule COC(=O)CCCC1(CCCC(=O)OC)CCCCCCCCC(CCCC(=O)OC)(CCCC(=O)OC)C(=O)C1=O : ____ > 100 µM

Item under review: Cc1c(N)nc([C@H](CC(N)=O)NC[C@H](N)C(N)=O)nc1C(=O)N[C@H](C(=O)N[C@H](C)[C@@H](O)CC(=O)N[C@H](C(=O)NC(O[C@@H]1O[C@@H](C)[C@@H](N)[C@@H](O)[C@H]1O)C(O)c1nc(-c2nc(C(=O)NCCCCN)cs2)cs1)[C@@H](C)O)[C@@H](O[C@@H]1O[C@@H](CO)[C@@H](O)[C@H](O)[C@@H]1O[C@H]1O[C@H](CO)[C@@H](O)[C@H](OC(N)=O)[C@@H]1O)c1c[nH]cn1 (some centres not stated) . Reported TGI? > 50 µM

What value of TGI has been reported for the following molecule? COc1ccc(N2C(=O)/C(=C/C(Cl)=C/c3ccc([N+](=O)[O-])cc3)SC2=S)cc1 > 100 µM

State the recorded TGI for this entry: O=C1NC(=O)[C@@]2(CC[C@@H](O)C2)c2ccncc21 > 100 µM

Give its TGI value. Item: COc1cc(OCc2nc3cc(C(F)(F)F)ccc3nc2-c2ccccc2)cc(OC)c1OC > 100 µM

Query: TGI; subject: Nc1ncnc2c1ncn2C1OC(CO)C(O)C1NS(=O)(=O)c1ccccc1 (configuration not stated) > 100 µM

Would you mind telling me what TGI value was observed for CCCCOc1c(C(=O)O)cc(Br)cc1C(=O)O ? > 100 µM

Quick check: TGI of COC(=O)c1ccccc1NC(=S)NN(C)C ? > 100 µM

Can you share its TGI? I mean this molecule: CCCc1n[nH]c(=O)n1N1C(=O)C=CC1=O > 100 µM

I have this molecule here, COc1cccc2c1C(=O)c1c(O)c3c(c(O)c1C2=O)C[C@@](O)(C(=O)CN1CCOCC1)C[C@@H]3OC1CC(N)C(O)C(C)O1 (some centres not stated) , and I need its recorded TGI. > 100 µM

Fill in the blank: the reported TGI of Cc1cc2c(cc1C)[n+](=O)c(C(=O)/C=C/c1ccc3c(c1)OCO3)c(C)n2[O-] is ____. > 100 µM

For O=C1OCC(c2ccc(O)cc2)=C1c1cc(O)c(O)c(O)c1 , what is its reported TGI? > 100 µM

Query (molecule): CCNc1cc2oc(=O)cc(C(F)(F)F)c2cc1C ; field requested: TGI > 100 µM

Form field: reported TGI of O=C(CNc1nccs1)Nn1cnc2ccc(S(=O)(=O)Nc3nccs3)cc2c1=O > 100 µM

Entry N/C(=N\NC(=O)c1nc2ccccc2s1)c1ccccn1 : reported TGI = ? > 63.7 µM

Reported TGI for COc1cc(-c2nn(-c3cccc(NC(=O)NCCNS(=O)(=O)c4ccc(Cl)cc4)c3)cc2-c2ccncc2)ccc1Cl : what is it? > 100 µM

Given the molecule N#CCCN(CCC#N)c1ccc(/C=C2\SC(=S)NC2=O)cc1 , what is its reported TGI? > 100 µM

Look at this molecule and give its reported TGI. O=P(O)(O)OCC1OC(n2cnc3c(NCc4ccco4)ncnc32)C(O)C1O (configuration not stated) > 21.6 µM

Could you tell me which TGI is on file for O=C1C(C(c2ccc([N+](=O)[O-])cc2)N2CCOCC2)=C(O)C(c2ccccc2)N1c1ccccc1 (configuration not stated) ? > 10 µM

Need TGI, item CCOc1cc(C(=O)O)c2c(ccc3ccc(OC)c(OC)c32)c1OC > 100 µM
